Reference source for all entries: PubChem BioAssay

// values below are reported differential viability (reversal)
Experiment: MRP1 drug-resistance reversers in H69AR cells – cell-based, doxorubicin co-treatment, pilot screen (AID 601)
Settings: H69AR cells + 2 uM doxorubicin, CellTiter-Glo, 72 h; at 10 µM; active compounds read high
Form entry: value (%) — number only.

Some compounds with known differential viability (reversal) results, for comparison:
Looking up CC(=O)Nc1cc(N2C(=O)CCC2=O)ccc1Cl , I found its differential viability (reversal) recorded as 12.4

Looking up CCOC(=O)C(C(=O)OCC)C(C)C#CCN1CCCCC1 (stereo not drawn) , I found its differential viability (reversal) recorded as 1.13

Looking up O=C(NC1CCN(Cc2ccccc2)CC1)C1CCN(S(=O)(=O)c2cccc3cccnc23)CC1 , I found its differential viability (reversal) recorded as 1.09

Looking up CCOC(=O)c1cc2c(=O)n3ccccc3nc2n(CC(C)C)c1=NC(=O)c1ccco1 , I found its differential viability (reversal) recorded as 4.44

***
Looking up O=C(C1CCN(c2nnc(-n3cccc3)s2)CC1)N1CCc2ccccc2C1 , I found its differential viability (reversal) recorded as 1.77

Looking up COc1ccc(S(=O)(=O)N(C)C2CCN(C)CC2)cc1 , I found its differential viability (reversal) recorded as 11.1

Looking up COc1ccc(N2CCN(C(=O)CSc3ccccc3)CC2)cc1 , I found its differential viability (reversal) recorded as 12.5

Looking up CCN1CCN(c2nc(C)nc3c2sc(=S)n3C)CC1 , I found its differential viability (reversal) recorded as -1.33

Looking up CC(=O)c1cccc(NC(=O)CCOc2ccccc2)c1 , I found its differential viability (reversal) recorded as 1.96

Looking up COc1ccccc1OCC(=O)N1CCN(c2ccccc2OC)CC1 , I found its differential viability (reversal) recorded as 13.2

Looking up COc1ccc(C(=O)c2ccc(OC)c(N)c2)cc1N , I found its differential viability (reversal) recorded as -46.3

---

// values below are reported viability
Assay: HUVEC growth inhibition – cell-based, human, primary screen (AID 575);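 note: 100% = median of untreated cell wells with 0.1% DMSO on each plate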
Settings: HUVEC proliferation, CellTiter-Glo luminescence, 72 h; at 10 µM; active compounds read low
Form entry: value (%) — number only.

Looking up CCCN1CC23C=CC(O2)C(C(=O)O)C3C1=O (centres undefined) , I found its viability recorded as 85.4

***
Looking up CCOc1ccc2[nH]c(C)cc(=O)c2c1 , I found its viability recorded as 94.8

Looking up CN(C)CCCN1C(=O)CSC1c1ccccc1 (centres undefined) , I found its viability recorded as 91.6

Looking up c1ccc(-c2nnc(CSc3nncs3)o2)cc1 , I found its viability recorded as 88.4

Looking up Nc1nc2n(n1)C(c1cccc(Br)c1)CC(c1ccc(F)cc1)N2 (centres undefined) , I found its viability recorded as 98.8

Looking up COc1ccc(N2CCN(C(=O)c3c(-c4ccccc4)noc3C)CC2)cc1 , I found its viability recorded as 94.4

---

Assay: MRP1 drug-resistance reversers in H69AR cells – cell-based, doxorubicin co-treatment, pilot screen (AID 601)
Conditions: H69AR cells + 2 uM doxorubicin, CellTiter-Glo, 72 h; at 10 µM; active compounds read high
// values below are reported differential viability (reversal)
Form entry: value (%) — number only.

Looking up COc1cccc(-c2nc3n(n2)C(c2ccccc2Cl)C(C(N)=O)=C(C)N3)c1 (stereo unspecified) , I found its differential viability (reversal) recorded as 14.6

Looking up CC(Sc1nc(-c2ccccc2)cc(C(F)(F)F)n1)C(=O)N1CCCC1 (stereo unspecified) , I found its differential viability (reversal) recorded as -8.49

Looking up CCCCc1cc2c(c(NC(C)=O)n1)c(=O)oc1ccccc12 , I found its differential viability (reversal) recorded as -8.33

Looking up CC1(C)C(c2ccccc2)=NC(c2ccccc2)N1O (stereo unspecified) , I found its differential viability (reversal) recorded as 8.36

Looking up Cc1c(C(=O)Nc2nnc(C(F)(F)F)s2)oc2ccccc12 , I found its differential viability (reversal) recorded as -8.24

Looking up COc1cc2c(cc1OC)-c1nnc(-c3cccs3)n1C(C)(C)C2 , I found its differential viability (reversal) recorded as 2.48
